Where these numbers come from: patent US20240317721A1

Measured pIC50, listed per entry for reference.
- assayedTarget: KRasG12C (M1-K169, biotinylated on the N-terminus) (Homo sapiens (Human), UniProt P01116, G12C)
- test: Covalent competition assay: scintillation proximity assay (SPA) quantifying covalent modification of KRASG12C
- protocolConditions: competition with radiolabeled covalent probe (Compound B/Compound A), 2 hours incubation, 10 nM KRasG12C
pIC50: −log10 of the molar value.

| compound | inequalitySign | pIC50 |
| --- | --- | --- |
| C=CC(=O)N1CC2(CC(n3nc(N4CCN(C5CCOC5)CC45CCC5)c(-c4c(Cl)c(C)cc5[nH]ncc45)c3C)C2)C1 (single isomer, unassigned) [Example 132b] | = | 5.35 |
| C=CC(=O)N1CC2(CC(n3nc(N4CCN(CC(C)(C)O)CC45CCC5)c(-c4c(Cl)c(C)cc5[nH]nc(N)c45)c3C)C2)C1 (single isomer, unassigned) [Example 117b] | = | 5.80 |
| C=CC(=O)N1CC2(CC(n3nc(N4CCN(C[C@@H]5COCCO5)C[C@@]4(CC)C(F)F)c(-c4c(Cl)c(C)cc5[nH]ncc45)c3C)C2)C1 (single isomer, unassigned) [Example 107b] | = | 8.00 |
| CC[C@@]1(C)CN(C[C@@H]2COCCO2)CCN1c1nn(C2CC3(C2)CN(C(=O)/C=C/Cl)C3)c(C)c1-c1c(Cl)c(C)cc2[nH]ncc12 (single isomer, unassigned) [Example 175a] | = | 6.03 |
| C=CC(=O)N1CC2(CC(n3nc(N4CC[C@@H](CN5CCN(C6COC6)C[C@@H]5CO)CC4(C)C)c(-c4c(Cl)c(Cl)cc5[nH]ncc45)c3C)C2)C1 (single isomer, unassigned) [Example 290b] | > | 8.30 |
